# assay_procedure: NCI Yeast Anticancer Drug Screen. Data for the sgs1 strain (AID 173);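 note: 0% = growth of vehicle-only control cultures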
# recorded_conditions: S. cerevisiae sgs1 mutant, at 33.0 µM, stronger effect = higher value
# Experimental: Growth inhibition of yeast strains with defined genetic alterations is measured as a screen for potential anti-cancer activity. Selected strains with alterations in DNA damage repair or cell cycle control were exposed to compounds and growth inhibition was measured relative to vehicle treated controls. The strain used in this assay is sgs1
This is part of a sample that, as a whole, favours compounds with a hit. Of some 79,000 tested, about 15% had one in any assay.
Entries and their measured growth inhibition follow.
Enter your answer as a number in %; do not include the unit.

A selection of reference data follows.
{"molecule": "O=C(CCCN1CCC(O)(c2ccc(Cl)cc2)CC1)c1ccc(F)cc1", "reported": 43}
{"molecule": "COC(=O)c1ccc([N+](=O)[O-])c(O)c1", "reported": 81}
{"molecule": "O=C1CSC(/C=C/c2ccccc2)N1c1ccc(-c2ccc(-n3c(-c4ccccc4)nc4ccccc4c3=O)cc2)cc1 (configuration not stated)", "reported": 17}
{"molecule": "C=CCC1=C(C)C(OC(=O)/C=C/c2ccccc2)CC1=O (configuration not stated)", "reported": 6}

Look up and report measured growth inhibition for this entry: COC(=O)C1=C(C(=O)OC)C2(C)C=CC1O2 (configuration not stated)
84

Look up and report measured growth inhibition for this entry: "NC(=O)NN=C(CS)CS"
49

Look up and report measured growth inhibition for this entry: CC(C(=O)N1C(=O)N(C(=O)[C@H](C)C(O)c2ccccc2)[C@H](c2ccccc2)[C@H]1c1ccccc1)[C@@H](O)c1ccccc1 (some centres not stated)
65

* * *

# assay_procedure: NCI Yeast Anticancer Drug Screen. Data for the wt2 strain (AID 169);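 note: 0% = growth of vehicle-treated yeast cultures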
# recorded_conditions: S. cerevisiae wt2 strain growth inhibition; at 1.2 µM; stronger effect = higher value
Compounds without any hit were thinned out: in the full panel of roughly 79,000, 15% have a hit.
Entries and their measured growth inhibition follow.
Enter your answer as a number in %; do not include the unit.

A selection of reference data follows.
{"compound": "O=C1C2C=CC1C1C(=O)OC(=O)C21 (centres undefined)", "reported": -25}
{"compound": "CCC#CCCCOC(=O)c1cc([N+](=O)[O-])cc([N+](=O)[O-])c1", "reported": -7}
{"compound": "O=C(NC(Nc1ccc(F)c(Cl)c1)(C(F)(F)F)C(F)(F)F)C(C(F)(F)F)C(F)(F)F", "reported": 1}
{"compound": "O=C(NCCCCCCCN1CCCCCCC1)C(C1CCCCC1)C1CCCCC1", "reported": 37}
{"compound": "Cc1ccc(S(=O)(=O)NCCSS(=O)(=O)c2ccc(C)cc2)cc1", "reported": -14}

Look up and report measured growth inhibition for this entry: "COc1ccc(Br)c(C(=O)Sc2nnnn2-c2cccc(Cl)c2)c1"
-11

Look up and report measured growth inhibition for this entry: "COC(=O)c1ccc([N+](=O)[O-])c(O)c1"
3

Look up and report measured growth inhibition for this entry: "Cn1c2ccccc2c(=O)c2cc(NC(=O)CCCCC(=O)Nc3ccc4c(c3)c(=O)c3ccccc3n4C)ccc21"
-3

Look up and report measured growth inhibition for this entry: "CCC/C(Cl)=N\OC(=O)Nc1cccc(C(F)(F)F)c1"
21

* * *

# assay_procedure: NCI Yeast Anticancer Drug Screen. Data for the mgt1 strain (AID 153)
# recorded_conditions: S. cerevisiae mgt1 mutant growth inhibition; at 33.0 µM
Compounds without any hit were thinned out: in the full panel of roughly 79,000, 15% have a hit. The source made the active and inactive calls. No stated cut-off is given here; in the data, active means growth inhibition above about 70%; inactive means the rest.
Write down one outcome, taken from YES for active, NO for inactive

Previously resolved entries follow.
{"compound": "Cc1ccc(CSC(N)=Nc2ccccc2)cc1C", "group_label": "NO"}
{"compound": "CC(C)C1=CC2=C[C@H](O)[C@H]3C(C)(C)CCC[C@]3(C)C2=C(O)C1=O", "group_label": "YES"}
{"compound": "CCC#CCCCOC(=O)c1cc([N+](=O)[O-])cc([N+](=O)[O-])c1", "group_label": "YES"}

Which outcome was entered for the compound C=C1CC(Cn2cc(Br)c(=O)[nH]c2=O)(c2ccc(-c3ccccc3)cc2)OC1=O (stereo not drawn) in this test?
NO

Which outcome was entered for the compound "c1ccc2c(c1)NC(NC1Nc3ccccc3N1)N2" in this test?
NO

Which outcome was entered for the compound "CCC/C(Cl)=N\OC(=O)Nc1ccc(Br)cc1" in this test?
YES

Which outcome was entered for the compound "Cc1cc(O)cc(O)c1N=Nc1ccc([N+](=O)[O-])cc1" in this test?
NO

Which outcome was entered for the compound "C/C(=N\NC(=S)SCc1ccccc1)c1ccccn1" in this test?
YES

Which outcome was entered for the compound "COc1ccc2ccc3ccccc3c2c1C=O" in this test?
NO

Which outcome was entered for the compound COc1cc(C2c3cc4c(cc3OC(Nc3ccccc3)C2C)OCO4)cc(OC)c1O (stereo not drawn) in this test?
NO

# credit: PubChem BioAssay (NCI)
